assay: Plasma protein binding in human assessed as binding rate at 1200 ng/ml prewarmed for 30 mins by LC-MS/MS analysis; format: ADME, cell-free; conditions: read-out: PPB (converted)
readout label: fraction unbound at 0.5 h, 1200 ng/ml
Give your answer as a number; write no unit.

molecule CC(C)(C(=O)O)c1cccc(CCCN2CCC(=C3c4ccc(Cl)cc4CCc4cccnc43)CC2)c1 , fraction unbound at 0.5 h, 1200 ng/ml observed: 0.284

* * *

test: Plasma protein binding in rat assessed as binding rate at 500 ng/ml prewarmed for 30 mins by LC-MS/MS analysis; assay type: ADME, cell-free; conditions: read-out: PPB (converted)
readout label: fraction unbound at 0.5 h, 500 ng/ml
Give your answer as a number; write no unit.

compound CC(C)(C(=O)O)c1cccc(CCCN2CCC(=C3c4ccc(Cl)cc4CCc4cccnc43)CC2)c1 , fraction unbound at 0.5 h, 500 ng/ml observed: 0.34

Source listed as ChEMBL document CHEMBL5512623.
